assay: modulators of S6 phosphorylation in cells, primary screen, cell-based, A549, cytoblot, luminescence, serum-stimulated (AID 1158); details: A549 phospho-S6 cytoblot, 5 h, higher = more signal;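 also: serum-stimulated A549 lung adenocarcinoma cells; signal is phosphorylated S6 detected by cytoblot immunostaining with HRP secondary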

molecule	z-score
C[C@@H]1C=CCC(=O)OC[C@H]2O[C@@H](C=C[C@@H]2O)[C@H](C)C=CCC(=O)OC1	1.61
COC(=O)CC=C[C@@H](C)[C@@H](C=NO[C@@H](C)c1cn([C@H](CO)Cc2ccccc2)nn1)OC	1.32
CC(=O)OC[C@H]1O[C@H](CCON=C2[C@H]3CCn4c(=O)n(-c5ccccc5)c(=O)n4[C@H]3[C@H](O)[C@@H]3O[C@H]23)C=C[C@@H]1OC(C)=O	-0.84
CCCNC(=O)OC[C@H]1O[C@H](CCON=C(C)CCN2CCCc3nc(C)c(C)cc32)C=C[C@@H]1Oc1ccc(OC)cc1	-0.546
C[C@H]1CC[C@H]2C(=O)OC(CO)CN2[C@@H]1c1ccc(Br)cc1 (stereo partly drawn)	-0.42
CC=CC1=C(CO)C(=O)[C@@H]2O[C@@H]2C1=O	-0.292
O=C1C[C@@H](O)[C@@H](O)[C@@H]2[C@@H]3C(=O)N(Cc4ccccc4)C(=O)[C@@H]3CC[C@@H]12	-0.224
O=C1[C@H]2[C@H]3[C@H](O)[C@H](O)CC(=NOCc4ccccc4)[C@@H]3CC[C@H]2C(=O)N1c1ccc(F)cc1F	2.35

###

test: small-molecule microarray binders of probe aLefty2, primary screen, biochemical, biotinylated probe, 635/667 nm fluorescence (AID 1094); settings: higher = more signal;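 also: score merges spot fluorescence near 667 nm with spot signal-to-noise ratio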
measuredProperty: composite z-score

compound	reading
CCOC(=O)[C@H](CC(C)C)NC(=O)CCC1CC(OC(=O)NCc2cccc3ccccc23)CC2(CCCC(COC(=O)NCCc3ccc(Cl)cc3)O2)O1 (some centres undefined)	-0.188
CC(C)=NOC[C@@H](C)[C@H](OCc1ccccc1)C(C)C	-0.127
CCCNC(=O)OC[C@H]1O[C@H](CCON=C(C)CCC(=O)OC[C@H]2O[C@H](c3ccccc3)C=C[C@@H]2Oc2ccc(OC)cc2)C=C[C@@H]1Oc1ccc(OC)cc1	-0.0982
CCN1C(=O)[C@@H]2[C@H]3C(=CC[C@@H]2C1=O)C1(OCCCO1)[C@H]1O[C@H]1[C@H]3O	-0.16
COC(=O)CC=C[C@@H](C)[C@@H](C=NO[C@@H](C)c1cn([C@H](CO)Cc2ccccc2)nn1)NS(=O)(=O)c1ccc(C)cc1	-0.247
CC(CCC(=O)OC[C@H]1O[C@H](C#Cc2ccccc2)C=C[C@@H]1Oc1ccc(C)cc1)=NO[C@H](C)c1cn([C@H](CO)Cc2ccccc2)nn1	-0.239
COc1ccc(COC(=O)NN=C2C[C@@H](O)[C@@H](O)[C@@H]3[C@@H]4C(=O)N(c5cccc(Oc6ccccc6)c5)C(=O)[C@@H]4CC[C@@H]23)cc1	0.162
CCOC(=O)[C@H](CC(C)C)NC(=O)CCC1CC(OC(=O)NCc2cccc3ccccc23)CC2(CCCC(COC(=O)NCCOc3ccccc3)O2)O1 (some centres undefined)	-0.177
COc1ccc(COC(=O)NN=C2C[C@@H](O)[C@@H](O)[C@@H]3[C@@H]4C(=O)N(C5CCCCC5)C(=O)[C@@H]4CC[C@H]23)cc1	0.432

###

assay: cell viability in Huh7 cells, primary screen, cytotoxicity control for HCV replication inhibitor project, CellTiter-Glo luminescence, basal, 48 h (AID 1143); settings: Huh7 HCV replicon, higher = more signal, called active from +8 up or from −8 down;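 also: Huh7 hepatoma cells carrying a hepatitis C replication reporter with no stimulus; test concentration not given here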
Recorded z-score split into classes lo = under -1, med = from -1 up to 0.1, hi = 0.1 and over

compound	classAssignment
CC(CCN1CCCc2nc(C)c(C)cc21)=NOC(C)CN1CCCCc2nc(C)c(C)cc21 (centres undefined)	med
COc1cccc([C@H]2Oc3ccc(OC)cc3C(=NO[C@@H](C)c3cn([C@H](CO)Cc4ccccc4)nn3)[C@@H]2O)c1	med
CCOC(=O)[C@H](CC(C)C)NC(=O)CCC1CC(OC(=O)NCCc2ccc(F)cc2)CC2(CCCC(COC(=O)NCC(c3ccccc3)c3ccccc3)O2)O1 (some centres undefined)	med
COc1cc(O)c(C(=O)C=Cc2ccc3c(c2)OCO3)c(OC)c1	lo
CC(CCN1CCCCc2nc(C)c(C)cc21)=NOC[C@@H](C)[C@H](OCc1ccccc1)C(C)C	lo
CCN1C(=O)[C@H]2[C@H]3[C@H](O)[C@H](O)CC(=NO[C@@H](C)c4cn([C@H](CO)Cc5ccccc5)nn4)[C@@H]3CC[C@H]2C1=O	med
Cc1ccc(S(=O)(=O)N[C@H]2COC(=O)CC=C[C@@H](C)COC(=O)CC=C[C@@H]2C)cc1	hi
CCOC(=O)[C@H](CC(C)C)NC(=O)CCC1CC(OC(=O)NCc2cccc3ccccc23)CC2(CCCC(COC(=O)NCc3cccc(C(F)(F)F)c3)O2)O1 (some centres undefined)	med
CON=C[C@@H](NS(=O)(=O)c1ccc(C)cc1)[C@H](C)C=CCC(=O)OC	hi
CC[C@@H](c1ccccc1)n1c(=O)n2n(c1=O)[C@H]1[C@H](O)[C@@H]3O[C@@H]3C(=O)[C@H]1CC2	lo
COc1cccc([C@H]2Oc3ccc(OC)cc3C(=NO[C@@H]3O[C@H](COC(C)=O)[C@@H](OC(C)=O)[C@H](OC(C)=O)[C@H]3OC(C)=O)[C@@H]2O)c1	med
COC(=O)CC=C[C@@H](C)[C@@H](C=NO[C@H](C)c1cn([C@@H]2COC[C@H]2O)nn1)NS(=O)(=O)c1ccc(C)cc1	hi
COC(=O)CC=C[C@H](C)[C@@H](OCc1cccc(Br)c1)[C@@H](C)[C@H](OC)C1CCCCC1	hi
CCOC(=O)[C@H](CC(C)C)NC(=O)CCC1CC(OC(=O)NCCc2ccc(F)cc2)CC2(CCCC(COC(=O)NCCc3ccc(Cl)cc3)O2)O1 (some centres undefined)	lo
C[C@H]1COC(=O)[C@@H]2CCCN2C(=O)[C@@H](C)COC(=O)[C@H](Cc2ccccc2)NC1=O	hi
O=C(NN=C1C[C@@H](O)[C@@H](O)[C@@H]2[C@@H]3C(=O)N(C[C@@H]4CCCO4)C(=O)[C@@H]3CC[C@@H]12)OCc1ccccc1	med
CC(CCN1CCCCc2nc(C)c(C)cc21)=NO[C@H](C)c1cn([C@H](CO)Cc2ccccc2)nn1	lo
Cn1c(=O)n2n(c1=O)[C@H]1[C@H](O)[C@@H]3O[C@@H]3C(=O)[C@H]1CC2	med
CC(C)=CCCC(C)=CCON=C1C[C@@H](O)[C@@H](O)[C@@H]2[C@@H]3C(=O)N(c4cccc(Oc5ccccc5)c4)C(=O)[C@@H]3CC[C@@H]12	lo
C[C@@H]1CC[C@H]2C(=O)O[C@@H](COc3ccc(C(C)(C)C)cc3)CN2[C@@H]1c1ccc(Br)cc1	hi
CCC(=O)[C@@]1(O)C(=O)N2C(=C3C(=O)OCC[C@@H]31)N(Cc1ccccc1)C(C)=C(C(=O)OC)[C@H]2c1ccccc1	hi
CCOC(=O)[C@H](Cc1ccccc1)NC(=O)CCC1CC(OC(=O)NCc2cccc3ccccc23)CC2(CCCC(COC(=O)NCC(c3ccccc3)c3ccccc3)O2)O1 (some centres undefined)	lo
C[C@H]1CC[C@H]2C(=O)OC(CO)CN2[C@@H]1c1ccc(Br)cc1 (some centres undefined)	hi

###

Overview of recorded composite z-score for various molecules
test system: Human papillomavirus type 1a protein E7 (residues 44-93); assay: HPV1a E7 fragment binders on microarrays, primary screen, biochemical, small-molecule microarray, residues 44-93, 635 nm fluorescence (AID 1108); details: small-molecule microarray binding, fluorescence 635 nm; higher = more signal;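 also: E7 fragment applied at 1 µg/mL in TBST for 1 h at 4 C; score combines spot fluorescence with its signal to noise ratio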
measuredProperty: composite z-score

molecule	reading
COc1ccc(COC(=O)NN=C2C[C@@H](O)[C@@H](O)[C@@H]3[C@@H]4C(=O)N(Cc5ccccc5)C(=O)[C@@H]4CC[C@H]23)cc1	1.36
O=C1[C@H]2[C@H]3[C@H](O)[C@H](O)CC(=NO[C@@H]4O[C@H](CO)[C@@H](O)[C@H](O)[C@H]4O)[C@H]3CC[C@H]2C(=O)N1c1cccc(Oc2ccccc2)c1	0.583
O=C(NN=C1C[C@@H](O)[C@@H](O)[C@@H]2[C@@H]3C(=O)N(C[C@@H]4CCCO4)C(=O)[C@@H]3CC[C@@H]12)OCc1ccccc1	0.457
COCCNC(=O)OCC1CCCC2(CC(OC(=O)NCc3ccc4c(c3)OCO4)CC(CCC(=O)N[C@@H](C)C(=O)OC)O2)O1 (some centres not stated)	0.953
Cc1ccc(S(=O)(=O)N[C@H]2COC(=O)CC=C[C@@H](C)COC(=O)CC=C[C@@H]2C)cc1	-0.572
O=C1[C@H]2[C@H]3[C@H](O)[C@H](O)CC(=NOC[C@@H](O)COCc4ccco4)[C@H]3CC[C@H]2C(=O)N1c1ccc(F)cc1F	-3.61
C[C@H]1CC[C@H]2C(=O)OC(CO)CN2[C@@H]1c1ccc(Br)cc1 (some centres not stated)	-0.558
